B1: VTI1B (parent)
chain: NKLLLSIIILLELAILGGLVYYKF

variants of: B1; test: protein stability index of a GFP-peptide fusion (GPS, HEK-293T) (PSI 1-6); higher = more stable; details: c terminus: a fixed tail appended;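 also: lentivirally expressed fusions sorted by FACS into six bins by GFP to DsRed ratio, PSI derived from sequencing read proportions per bin multiplied by bin number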
// protein stability index lookup, one value per entry
Please give only the number in your answer, with no unit.

- sequence variant: "Y22T"
  protein stability index: 2.95

Read the next record carefully.
Look up and report measured protein stability index for this entry: L5A
2.22
